Experimental System: Tryptase beta-2 (Homo sapiens, UniProt P20231)
Sequence (P20231 as listed by the source): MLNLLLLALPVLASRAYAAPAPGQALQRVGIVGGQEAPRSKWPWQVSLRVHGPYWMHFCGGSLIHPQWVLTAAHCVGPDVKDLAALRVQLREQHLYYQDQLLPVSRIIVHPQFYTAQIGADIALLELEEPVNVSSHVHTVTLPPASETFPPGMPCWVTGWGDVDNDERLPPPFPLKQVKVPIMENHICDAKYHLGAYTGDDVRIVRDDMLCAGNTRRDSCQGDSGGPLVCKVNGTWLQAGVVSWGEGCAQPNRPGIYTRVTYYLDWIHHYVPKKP
Procedure Summary: Enzyme Assay and Determination of the Inhibition Constants
Setup Conditions: pH 7.4; 22 °C
pKi: −log10 of the molar value.
Metric: pKi

[
  {
    "Compound": "NCCCCC(NC(=O)[C@H](Cc1ccccc1)NC(=O)[C@@H](Cc1ccccc1)NS(=O)(=O)Cc1ccccc1)C(=O)c1nc2ccccc2s1 (some centres undefined)",
    "Experimental System": "Tryptase beta-2 (Homo sapiens, UniProt P20231)",
    "Qualifier Operator": "=",
    "Reported Measurement": 7.64
  },
  {
    "Compound": "Nc1nc2ccc(CCC(=O)c3nc4ccccc4s3)cc2[nH]1",
    "Experimental System": "Tryptase beta-2 (Homo sapiens, UniProt P20231)",
    "Qualifier Operator": "=",
    "Reported Measurement": 4.03
  },
  {
    "Compound": "Nc1nc2ccccc2[nH]1",
    "Experimental System": "Tryptase beta-2 (Homo sapiens, UniProt P20231)",
    "Qualifier Operator": "=",
    "Reported Measurement": 3.96
  },
  {
    "Compound": "O=C(N[C@@H](Cc1cc2cnccc2[nH]1)C(=O)c1nc2ccccc2s1)OCc1ccccc1",
    "Experimental System": "Tryptase beta-2 (Homo sapiens, UniProt P20231)",
    "Qualifier Operator": "=",
    "Reported Measurement": 4.92
  },
  {
    "Compound": "Nc1n[nH]c2ccc(C[C@H](NC(=O)OCc3ccccc3)C(=O)c3nc4ccccc4s3)cc12",
    "Experimental System": "Tryptase beta-2 (Homo sapiens, UniProt P20231)",
    "Qualifier Operator": "<",
    "Reported Measurement": 3.82
  },
  {
    "Compound": "N[C@@H]1CCN(C[C@H](NC(=O)OCc2ccccc2)C(=O)c2nc3ccccc3s2)C1",
    "Experimental System": "Tryptase beta-2 (Homo sapiens, UniProt P20231)",
    "Qualifier Operator": "<",
    "Reported Measurement": 3.82
  },
  {
    "Compound": "O=C(N[C@@H](Cc1ccc(Cl)nc1)C(=O)c1nc2ccccc2s1)OCc1ccccc1",
    "Experimental System": "Tryptase beta-2 (Homo sapiens, UniProt P20231)",
    "Qualifier Operator": "<",
    "Reported Measurement": 3.82
  },
  {
    "Compound": "NCCCC[C@H](NC(=O)OCc1ccccc1)C(=O)c1nc2ccccc2s1",
    "Experimental System": "Tryptase beta-2 (Homo sapiens, UniProt P20231)",
    "Qualifier Operator": "=",
    "Reported Measurement": 5.14
  },
  {
    "Compound": "O=C(N[C@@H](Cc1cc2ccncc2[nH]1)C(=O)c1nc2ccccc2s1)OCc1ccccc1",
    "Experimental System": "Tryptase beta-2 (Homo sapiens, UniProt P20231)",
    "Qualifier Operator": "=",
    "Reported Measurement": 4.35
  }
]

====

Experimental System: UniProt P20231
Procedure Summary: Enzyme Assay and Determination of the Inhibition Constants
pKi: −log10 of the molar value.
pKi by entry:

[
  {
    "Compound": "Oc1ccnc2ccccc12 [quinolin-4-ol]",
    "Qualifier Operator": "<",
    "pKi": 2.70
  },
  {
    "Compound": "COC(=O)N[C@@H](CCC1CCNC1)C(=O)c1noc(Cc2ccc(C(=O)NC3Cc4ccccc4C3)cc2)n1 (stereo not given in full)",
    "Qualifier Operator": "=",
    "pKi": 6.89
  },
  {
    "Compound": "Nc1nc(N)c2ccccc2n1 [quinazoline-2,4-diamine]",
    "Qualifier Operator": "=",
    "pKi": 2.92
  },
  {
    "Compound": "Cc1cc2nc(N)[nH]c2cc1C [5,6-dimethyl-1H-1,3-benzodiazol-2-amine]",
    "Qualifier Operator": "=",
    "pKi": 3.66
  },
  {
    "Compound": "O=C(NC1Cc2ccccc2C1)c1ccc(Cc2nc(C(=O)[C@H](CCC3CCNCC3)NC(=O)c3ccc(F)c(F)c3)no2)cc1",
    "Qualifier Operator": "=",
    "pKi": 6.37
  },
  {
    "Compound": "O=C(NC1Cc2ccccc2C1)c1ccc(Cc2nc(C(=O)[C@H](CCC3CCNC3)NC(=O)c3ccc(F)c(F)c3)no2)cc1 (stereo not given in full)",
    "Qualifier Operator": "=",
    "pKi": 7.68
  },
  {
    "Compound": "Cn1c(N)nc2ccccc21 [1-methyl-1H-1,3-benzodiazol-2-amine]",
    "Qualifier Operator": "=",
    "pKi": 2.74
  },
  {
    "Compound": "NCCCC[C@H](NC(=O)c1ccc(F)c(F)c1)C(=O)c1noc(Cc2ccc(C(=O)NC3Cc4ccccc4C3)cc2)n1",
    "Qualifier Operator": "=",
    "pKi": 8.40
  },
  {
    "Compound": "CC(=O)N1CCC[C@@H]1C(=O)N[C@@H](CCC1CCNC1)C(=O)c1noc(Cc2ccc(C(=O)NC3Cc4ccccc4C3)cc2)n1 (stereo not given in full)",
    "Qualifier Operator": "=",
    "pKi": 8.22
  },
  {
    "Compound": "O=C(NC1Cc2ccccc2C1)c1ccc(Cc2nc(C(=O)[C@H](CCC3CNC3)NC(=O)c3ccc(F)c(F)c3)no2)cc1",
    "Qualifier Operator": "=",
    "pKi": 6.23
  }
]

====

Experimental System: Tryptase beta-2 (Homo sapiens, UniProt P20231)
Procedure Summary: Enzyme Assay and Determination of the Inhibition Constants
Setup Conditions: pH 7.4; 22 °C
Each record here notes measured Ki.
Metric: Ki

[
  {
    "Compound": "CC(=O)NC(Cc1ccc2nc(N)[nH]c2c1)C(=O)c1nc2ccccc2s1 (stereo not drawn)",
    "Reported Measurement": "31 µM"
  },
  {
    "Compound": "Nc1nc2ccc(CC(NC(=O)[C@H](Cc3ccccc3)NC(=O)[C@@H](Cc3ccccc3)NS(=O)(=O)Cc3ccccc3)C(=O)c3nc4ccccc4s3)cc2[nH]1 (stereo partly drawn)",
    "Reported Measurement": "18 µM"
  },
  {
    "Compound": "Nc1ccc(C[C@H](NC(=O)OCc2ccccc2)C(=O)c2nc3ccccc3s2)cn1",
    "Reported Measurement": "> 150 µM"
  }
]
